Substrate: c1ccc([C@H]2CO2)cc1
Method description: purified protein
Format: biochemical, Phanerodontia chrysosporium
Condition set: 10-80 mM SO, 37 °C, buffer pH 8.0

Protein | kcat/Km / M⁻¹ s⁻¹
PchEHA (epoxide hydrolase) (Phanerodontia chrysosporium; E251G/G14A/K291R) (protein, catalytic triad D105/H308/D277) MDASLFKDFKTSRAFNYHYFYSPAKGPRPTLFFLHGNPSVATDWAQIVPHFTSRGYGVLAPDMLGYGDTDKPTDPALYVSSGMCRNLVDLLDHEGLEKVIAIGHDWGCLSVSRLASYYPERVIAYAFLAASFIGPIPPIPFDAFLEYIKQQVGYELYGYWKFYSEPGLDQFVRDHLDTFLSILWPSDPAVWKTRLAPTGALKQSALEGWTAPLAPYITEEFKKHHVEVFNKNGFEAPACYYRIMTSGLQAGDDKQILPERAVPPKDAPVFFGAANKDYICIPALAYATFKRDEWKDHKITIKEYDADHWLILSHADQVSRDLEAWIEGFASGGQ | 38300
